# testTarget: WDR5 (Homo sapiens, UniProt P61964)
# assayComment: Surface Plasmon Resonance (SPR) assay
# Type: binding
# Design: Full length WDR5 with an N-terminal His tag and C-terminal AviTag; His tag (N); made in house; host or cells: E. coli
# assayContext: read-out: SPR Kd
recordedEndpoint: Kd (pM)

[
  {
    "molecule": "CC(C)OC(=O)N1CC=C(c2c(F)cc(N3C[C@@H](C)N(C)[C@@H](C)C3)c(NC(=O)c3c[nH]c(=O)cc3C(F)(F)F)c2F)C1 [Example 134]",
    "recordedEndpoint": "Kd",
    "unitsText": "pM",
    "valueMeasured": 870
  }
]

I. C[C@@H]1CN(c2cc(F)c(C3=CCN(C(=O)OC4CC(F)(F)C4)C3)c(F)c2NC(=O)c2c[nH]c(=O)cc2C(F)(F)F)C[C@H](C)N1C [Example 136]
II. Cc1sc(-c2c(F)cc(N3CCN(C)[C@@H](C)C3)c(NC(=O)c3ccc(F)cc3C(F)(F)F)c2F)nc1C(=O)N1CCCC1 [Example 154]
Exercise: compare I and II ; which one has the greater Kd? Give the chosen item's label as your response.
I

====

# testTarget: WDR5 (Homo sapiens, UniProt P61964)
# assayComment: Surface Plasmon Resonance (SPR) assay
# Type: binding
# Set-up: Full length WDR5 with an N-terminal His tag and C-terminal AviTag; His tag (N); made in house; host or cells: E. coli
# assayContext: read-out: SPR Kd
# Protocol: Exemplary compounds of the application were dissolved in 100% DMSO at 10 mM, assayed fresh, and then stored at −20° C. for repeat studies and other experiments. Full length WDR5 with an N-terminal His tag and C-terminal AviTag (Avidity Inc.) was expressed in E. coli with coexpression of BirA to biotin label the protein in vivo. Purification was via Ni-NTA. SPR studies were performed using a Biacore™ T200 instrument (GE Health Sciences Inc.). […]
recordedEndpoint: Kd (nM)

[
  {
    "chemicalSmiles": "C[C@@H]1CN(c2ncc(-c3c(F)cc(N4CCN(C)[C@@H](C)C4)c(NC(=O)c4ccc(F)cc4C(F)F)c3F)cn2)C[C@H](C)O1",
    "testTarget": "WDR5 (Homo sapiens, UniProt P61964)",
    "valueMeasured": 1.94
  }
]

I. C[C@@H]1CN(c2cc(F)c(C3=CCCN(C(=O)OC4(C)CCC4)C3)c(F)c2NC(=O)c2c[nH]c(=O)cc2C(F)F)C[C@H](C)N1C
II. C[C@H]1CN(c2cc(F)c(-c3cnc(N4C[C@H]5CC[C@@H](C4)O5)nc3)c(F)c2NC(=O)c2c[nH]c(=O)cc2C(F)(F)F)CCN1C
III. CNC(=O)c1cc(-c2c(F)cc(N3C[C@@H](C)N(C)[C@@H](C)C3)c(NC(=O)c3c[nH]c(=O)cc3C(F)(F)F)c2F)ccc1F
Ordering: ascending Kd. List each label, following the requested order.
II, I, III

====

Measured IC50 (WDR5 (Homo sapiens))
recordedEndpoint: IC50 (nM)

[
  {
    "chemicalSmiles": "C[C@@H]1CN(c2cc(F)c(C3=CCN(c4ccnc(C#N)n4)CC3)c(F)c2NC(=O)c2c[nH]c(=O)cc2C(F)(F)F)C[C@H](C)N1C",
    "testTarget": "WDR5 (Homo sapiens)",
    "unitsText": "nM",
    "IC50": 15.3
  },
  {
    "chemicalSmiles": "C[C@@H]1CN(c2cc(F)c(-c3cnc(N4C[C@H]5CC[C@@H](C4)O5)nc3)c(F)c2NC(=O)c2c[nH]c(=O)cc2C(F)(F)F)C[C@H](C)N1C",
    "testTarget": "WDR5 (Homo sapiens)",
    "unitsText": "nM",
    "IC50": 15
  },
  {
    "chemicalSmiles": "C[C@@H]1CN(c2nccc(-c3c(F)cc(N4CCN(C)[C@@H](C)C4)c(NC(=O)c4c[nH]c(=O)cc4C(F)F)c3F)n2)C[C@H](C)O1",
    "testTarget": "WDR5 (Homo sapiens)",
    "unitsText": "nM",
    "IC50": 14.4
  },
  {
    "chemicalSmiles": "C[C@@H]1CN(c2cc(F)c(C3=CCCN(c4ncc(C#N)s4)C3)c(F)c2NC(=O)c2c[nH]c(=O)cc2C(F)(F)F)C[C@H](C)N1C",
    "testTarget": "WDR5 (Homo sapiens)",
    "unitsText": "nM",
    "IC50": 14.6
  },
  {
    "chemicalSmiles": "CC(C)[C@@H]1CN(c2ncc(-c3c(F)cc(N4C[C@@H](C)N(C)[C@@H](C)C4)c(NC(=O)c4c[nH]c(=O)cc4C(F)(F)F)c3F)cn2)CCO1",
    "testTarget": "WDR5 (Homo sapiens)",
    "unitsText": "nM",
    "IC50": 14.7
  },
  {
    "chemicalSmiles": "C[C@@H]1CN(c2ncc(-c3c(F)cc(N4CCN(C)[C@@H](C)C4)c(NC(=O)c4c[nH]c(=O)cc4C(F)(F)F)c3F)cn2)C[C@H](C)O1",
    "testTarget": "WDR5 (Homo sapiens)",
    "unitsText": "nM",
    "IC50": 14.8
  }
]

====

# testTarget: UniProtKB P61964
# assayComment: Surface Plasmon Resonance (SPR) assay
# Assay type: binding
# Design: Full length WDR5 with an N-terminal His tag and C-terminal AviTag; His tag (N); made in house; host or cells: E. coli
# assayContext: read-out: SPR Kd
recordedEndpoint: Kd (nM)

[
  {
    "molecule": "C[C@H]1CN(c2cc(F)c(C3=CCN(C(=O)OC4(C)CCC4)CC3)c(F)c2NC(=O)c2c[nH]c(=O)cc2C(F)F)CCN1C [Example 92]",
    "Kd (nM)": 2.79
  }
]

a. C[C@@H]1CN(c2nccc(-c3c(F)cc(N4CCN(C)[C@@H](C)C4)c(NC(=O)c4c[nH]c(=O)cc4C(F)(F)F)c3F)n2)C[C@H](C)O1 [Example 58]
b. COc1cnc(N2CC=C(c3c(F)cc(N4CCN(C)[C@@H](C)C4)c(NC(=O)c4c[nH]c(=O)cc4C(F)F)c3F)C2)nc1 [Example 50]
// compare: a vs b , metric Kd, want the smaller # reply format: chosen label
b
(b: 0.8 nM, a: 1.25 nM)

====

# Tested on: MV4-11 cells
# assayComment: Cell proliferation assay (ATPlite)
# Format: cell-based
# assayContext: Homo sapiens, 120 h; MV4-11 cells, five days; read-out: GI MV411 EC50
recordedEndpoint: EC50 (nM)

Consider the worked cases shown below.
[
  {
    "compound": "CC(C)[C@H]1CN(c2ncc(-c3c(F)cc(N4C[C@@H](C)N(C)[C@@H](C)C4)c(NC(=O)c4c[nH]c(=O)cc4C(F)(F)F)c3F)cn2)CCO1 [Example 103]",
    "recordedEndpoint": "EC50",
    "valueMeasured": 14.7
  },
  {
    "compound": "CC(C)OC(=O)N1CC=C(c2c(F)cc(N3CCN(C)[C@@H](C)C3)c(NC(=O)c3c[nH]c(=O)cc3C(F)F)c2F)CC1 [Example 34]",
    "recordedEndpoint": "EC50",
    "valueMeasured": 44.4
  },
  {
    "compound": "C[C@H]1CN(c2ncc(-c3c(F)cc(N4CCN(C)[C@@H](C)C4)c(NC(=O)c4c[nH]c(=O)cc4C(F)F)c3F)cn2)C[C@H](C)O1 [Example 119]",
    "recordedEndpoint": "EC50",
    "valueMeasured": 20.4
  },
  {
    "compound": "C[C@H]1CN(c2cc(F)c(C3=CCN(C(=O)OC4(C)CCC4)CC3)c(F)c2NC(=O)c2c[nH]c(=O)cc2C(F)F)CCN1C [Example 92]",
    "recordedEndpoint": "EC50",
    "valueMeasured": 22.8
  },
  {
    "compound": "C[C@H]1CN(c2cc(F)c(C3=CCN(c4ncc(C#N)s4)C3)c(F)c2NC(=O)c2c[nH]c(=O)cc2C(F)F)CCN1C [Example 95]",
    "recordedEndpoint": "EC50",
    "valueMeasured": 96.4
  },
  {
    "compound": "CC(C)[C@@H]1CN(c2ncc(-c3c(F)cc(N4CCN(C)[C@@H](C)C4)c(NC(=O)c4c[nH]c(=O)cc4C(F)(F)F)c3F)cn2)CCO1 [Example 104]",
    "recordedEndpoint": "EC50",
    "valueMeasured": 20.3
  }
]

P. C[C@@H]1CN(c2cc(F)c(-c3cnc(N4CCOCC4)nc3)c(F)c2NC(=O)c2ccc(F)cc2C(F)(F)F)C[C@H](C)N1C [Example 10]
Q. C[C@@H]1CN(c2ncc(-c3c(F)cc(N4C[C@@H](C)N(C)[C@@H](C)C4)c(NC(=O)c4ccc(F)cc4C(F)F)c3F)cn2)C[C@H](C)O1 [Example 109, Formic Acid]
R. C[C@H]1CN(c2cc(F)c(-c3ccc4c(c3)OCO4)c(F)c2NC(=O)c2c[nH]c(=O)cc2C(F)(F)F)CCN1C [Example 184]
S. COc1cc(N2CCC=C(c3c(F)cc(N4C[C@@H](C)N(C)[C@@H](C)C4)c(NC(=O)c4c[nH]c(=O)cc4C(F)(F)F)c3F)C2)ncn1 [Example 142]
Order the records so the highest EC50 appears first and the lowest last. Note for the reader: the ranking is given by listing the labels in the order requested.
R, P, S, Q

1. CC(C)OC(=O)N1CC=C(c2c(F)cc(N3C[C@@H](C)N(C)[C@@H](C)C3)c(NC(=O)c3c[nH]c(=O)cc3C(F)(F)F)c2F)CC1 [Example 133]
2. C[C@@H]1CN(c2ccc(-c3c(F)cc(N4CCN(C)[C@@H](C)C4)c(NC(=O)c4ccc(F)cc4C(F)(F)F)c3F)cn2)CCO1 [Example 172]
# query: argmin of EC50 over 1 and 2 Please indicate the selected item by its label.
1
(1: 58.5 nM, 2: 124 nM)

Entry source: patent US20200385371A1
